B1: EHMT1 (parent)
chain: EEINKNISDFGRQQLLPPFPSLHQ

# Variants of: B1
# ASSAY_NAME: protein stability index of a GFP-peptide fusion (GPS, HEK-293T) (PSI 1-6); higher = more stable;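 further: lentivirally expressed fusions sorted by FACS into six bins by GFP to DsRed ratio, PSI derived from sequencing read proportions per bin multiplied by bin number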
# REPORTED_CONDITIONS: c terminus: a fixed tail appended
Parameter protein stability index: see the listing below.
Respond with the number and no other words.

Look up and state reported protein stability index for EEINKNISDFWRQQLLPPFPSLHQ [G11W] 1.55

Report protein stability index for EEVNKNISDFGRQQLLPPFPSLHQ [I3V] 2.9

Quickly give me recorded protein stability index for EEINKNISDVGRQQLLPPFPSLHQ [F10V] 3.04

Output measured protein stability index for this item: EEINKNISDFGRQQLLPPFPSLHD [Q24D] 4.02

Could you please provide reported protein stability index for EETNKNISDFGRQQLLPPFPSLHQ [I3T] ? Thanks! 3.11

Give the value of protein stability index reported for the following: ERINKNISDFGRQQLLPPFPSLHQ [E2R] 2.17

Consider the variant EEINKNISDFGRQQYLPPFPSLHQ [L15Y] and give its recorded protein stability index. 2.97

Return protein stability index for the following variant: EEICKNISDFGRQQLLPPFPSLHQ [N4C] 2.45

Provide only the value of recorded protein stability index for EEINKNISSFGRQQLLPPFPSLHQ [D9S] 2.42

Specify reported protein stability index for the variant shown: EEIAKNISDFGRQQLLPPFPSLHQ [N4A] 2.63

Specify measured protein stability index for EEINKNISDFGRQQLLPPEPSLHQ [F19E] . 4.39

Query protein stability index for EEINKNISDFTRQQLLPPFPSLHQ [G11T] 2.53

Quick one: give measured protein stability index for EEINKNISDFGPQQLLPPFPSLHQ [R12P] 3.38

Consider the variant EEINKNISDFGRQQLLPPFDSLHQ [P20D] . State its measured protein stability index. 3.5

Provide one value: measured protein stability index of EEINKNISDFGRQQRLPPFPSLHQ [L15R] 3.28

Supply measured protein stability index of EEINKFISDFGRQQLLPPFPSLHQ [N6F] in your reply. 1.91

These data points were gathered from the supplement of paper PMC10567573.
